Multiple publications report pKi for Prothrombin (Homo sapiens, UniProt P00734); what follows is a combined list.
Scale explanation: pKi corresponds to minus log10 of a concentration expressed in moles per litre.

Look over these answered cases.
# TEST_SMILES, pKi
rows = [
    ("CC1CCN(C(=O)[C@H](Cc2cccc(C(=N)N)c2)NS(=O)(=O)c2cccc(NC(=O)CCN)c2)CC1", 6.96),
    ("CCCNc1cnc2n(c1=O)[C@H](C(=O)NCc1ccc(C(=N)N)cc1)CC2(CCC)CCC", 5.92),
    ("Cc1nc(N)ccc1CNC(=O)Cn1c(C)cnc(NC(C)(C)Cc2ccccc2)c1=O", 7.62),
]

Shift focus to the following entry.
The reported Prothrombin (Homo sapiens, UniProt P00734) pKi of CC[C@@H](C)[C@H](NC(=O)[C@@H]1CCCN1C(=O)[C@H](CCC(=O)O)NC(=O)[C@H](Cc1ccc(O)cc1)NC(=O)[C@H](CC(=O)O)NC(=O)CNC(=O)CNC(=O)CNC(=O)CNC(=O)CN(C)CC(=O)[C@H](CCCNC(=N)N)NC(=O)[C@@H]1CCCN1C(=O)[C@H](N)Cc1ccccc1)C(=O)N1CCC[C@H]1C(=O)N[C@@H](CCC(=O)O)C(=O)N[C@@H](CCC(=O)O)C(=O)N[C@@H](Cc1ccc(O)cc1)C(=O)N[C@@H](CC1CCCCC1)C(=O)N[C@@H](CC(=O)O)C(=O)O is 10.46

----------
pKi: −log10 of the molar value.
Multiple publications report pKi for Prothrombin (Homo sapiens); what follows is a combined list.

# COMPOUND, MEASUREMENT
rows = [
    ("O=C(O)COc1cc(Cc2cc(OCc3ccccc3)c(Cc3cc(OCc4ccccc4)c(Cc4cc(OCc5ccccc5)c(Cc5cc(OCc6ccccc6)c(Cc6cc(O)ccc6OCC(=O)O)cc5OCC(=O)O)cc4OCC(=O)O)cc3OCC(=O)O)cc2OCC(=O)O)c(OCc2ccccc2)cc1CO", "< 4.82"),
]

The measured pKi associated with CN1CCCC1CCN(Cc1ccc2ccc(C(=N)N)cc2c1)C(=O)c1cccc2ccccc12 (stereo not drawn) reads < 5.30

The measured pKi associated with Nc1ncc2c(n1)CCC(CNC(=O)[C@@H]1CCCN1C(=O)[C@@H](CC1CCCCC1)NS(=O)(=O)Cc1ccccc1)C2 (stereo partly drawn) reads < 4.45

----------
Multiple publications report pKi for Prothrombin (Homo sapiens); what follows is a combined list.
Scale explanation: pKi corresponds to minus log10 of a concentration expressed in moles per litre.

Look over these answered cases.
# TEST_SMILES, MEASUREMENT
measured = [
    ("N=C(N)NS(=O)(=O)c1ccc([N+](=O)[O-])c(Cl)c1", 6.80),
    ("CN(C)C(=O)c1cccc(Oc2nc(Oc3cc(C(=N)N)ccc3O)c(F)c(OC3CCN(CC(=O)O)CC3)c2F)c1", 6.72),
    ("N=C(N)c1ccc2c(cnn2CC(=O)N2CCC(Cc3ccccc3)CC2)c1", 6.85),
    ("COc1cccc(S(=O)(=O)Nc2cccn(CC(=O)NCc3ccc4[nH]nc(N)c4c3)c2=O)c1", 6.49),
    ("Cc1cnc(NCCc2ccccc2)c(=O)n1CC(=O)NCc1ccn2ccnc2c1", 6.57),
]

The measured pKi associated with N=C(N)c1ccc(CNC(=O)[C@H]2CCCN2C(=O)[C@@H](CO)NS(=O)(=O)Cc2ccccc2)cc1 reads 7.92

----------
pKi: −log10 of the molar value.
Multiple publications report pKi for Prothrombin (Homo sapiens, UniProt P00734); what follows is a combined list.

# COMPOUND, SYSTEM_UNDER_TEST, MEASUREMENT
rows = [
    ("CCOC(=O)C1CCCN(c2ccc(N3C[C@H](CNC(=O)c4ccc(Cl)s4)OC3=O)cc2)C1 (mixture of isomers)", "Prothrombin (Homo sapiens, UniProt P00734)", "< 4.00"),
    ("COc1ccc(-n2nc(C(=O)O)c3c2C(=O)N(c2ccc(-c4ccccc4CN4CC[C@@H](O)C4)cc2)CC3)cc1", "Prothrombin (Homo sapiens, UniProt P00734)", "< 4.70"),
    ("CSc1ncc(Cl)c(C(=O)Nc2ccc(C)cc2C(=O)Nc2ccc(Cl)cc2)n1", "Prothrombin (Homo sapiens, UniProt P00734)", "< 5.30"),
]

The measured pKi associated with O=C(N[C@H]1C[C@H](C(=O)O)C[C@H]1NC(=O)c1ccc(Cl)s1)c1ccc(-n2ccccc2=O)cc1 reads < 4.92

The measured pKi associated with N=C(N)Nc1ccc(CNC(=O)OCc2ccccc2)cc1 reads < 3.00

The measured pKi associated with Cc1cc(C(=O)Nc2ccc(-c3ccccc3S(N)(=O)=O)cc2)n(-c2ccc3c(N)[nH]nc3c2)n1 reads < 4.68

The measured pKi associated with Nc1noc2ccc(-n3nnnc3C(=O)Nc3ccc(C(=O)N4CCCC4)cc3F)cc12 reads < 4.68

The measured pKi associated with O=C(NCCC1CCNCC1)N1CCN(C(=O)O[C@H]2CCC[C@@H](OC(=O)N3CCN(C(=O)NCCC4CCNCC4)CC3)CCC2)CC1 reads < 3.00

----------
Multiple publications report Ki for Prothrombin (Homo sapiens, UniProt P00734); what follows is a combined list.

Look over these answered cases.
# TEST_SMILES, ASSAY_METRIC, MEASUREMENT
measured = [
    ("CC(=O)N1CCC(Oc2ccc(N(C/C=C/c3cc(C(=N)N)ccc3O)C(=O)CCC(=O)O)cc2C(F)(F)F)CC1", "Ki", "> 5.5 µM"),
    ("Cc1ccc(NC(=O)c2scc(S(C)(=O)=O)c2Cl)c(C(=O)Nc2ccc(Cl)cc2)c1", "Ki", "> 5 µM"),
    ("Cc1c(F)c(Oc2cccc(C(=N)N)c2)nc(Oc2cc(C(=O)N(C)C)cc(C(=O)N(C)C)c2)c1F", "Ki", "> 5 µM"),
    ("COC(=O)[C@H](Cc1cccc(C(=N)N)c1)[C@@H](C)NC(=O)c1ccc(-c2ccc(C(N)=O)cc2)cc1", "Ki", "> 4 µM"),
    ("Cc1cc2cc(C)c1CCOC(=O)Nc1ccc(S(=O)(=O)C3CC3)c(c1)CN(C)C(=O)[C@@H]2Nc1ccc2cc[nH]c(=O)c2c1", "Ki", "> 10 µM"),
    ("COc1cc(Oc2nc(Oc3cccc(C(=O)N(C)C)c3)c(F)c(C)c2F)c(O)c(C(=N)N)c1", "Ki", "> 5 µM"),
]

The reported Prothrombin (Homo sapiens, UniProt P00734) Ki of Cc1c(F)c(Oc2cccc(C(=N)N)c2)nc(Oc2cccc(C(=O)N3CCCC3)c2)c1F is > 5 µM

----------
Multiple publications report Ki for UniProt:P00734; what follows is a combined list.

Look over these answered cases.
# COMPOUND, Ki
records = [
    ("N=C(N)c1cccc(CN2CC[C@H](NS(=O)(=O)c3ccc(-c4ccon4)s3)C2=O)c1", "> 4 µM"),
    ("CN(C)Cc1ccc2c(Cl)c(C(=O)Nc3ccc(Cl)cc3C(=O)Nc3ccc(Cl)cc3)sc2c1", "> 5 µM"),
    ("COC(=O)[C@H](Cc1cccc(C(=N)N)c1)[C@@H](C)NC(=O)c1ccc(-c2cc[n+](C)cc2)cc1", "> 4 µM"),
]

Shift focus to the following entry.
The measured Ki associated with C=C(CONC(=N)N)COc1cc(C)cc(OS(=O)(=O)c2ccccc2S(C)(=O)=O)c1 reads 0.0324 µM

----------
Multiple publications report Ki for Prothrombin (Homo sapiens); what follows is a combined list.
Write it as a number; the unit nM goes unstated.

Look over these answered cases.
# COMPOUND, UNIT_TAG, Ki
measured = [
    ("CCC[C@@]1(C)C[C@@H](C(=O)NCc2ccc(C(=N)N)cc2)n2c1c(Cl)nc(NC1CCC1)c2=O", "nM", 110),
    ("Cc1ccc(NS(=O)(=O)Cc2ccc(F)cc2Cl)c(=O)n1CC(=O)NCC1CCc2n[nH]cc2C1 (centres undefined)", "nM", 157),
    ("CCC1CCN(C(=O)[C@H](Cc2ccc(N)cc2)NS(=O)(=O)c2cnccc2N[C@H](COCCO)Cc2ccccc2)CC1 (stereo in doubt; 62)", "nM", 147),
]

Shift focus to the following entry.
The measured Ki associated with O=C([C@H](Cc1ccccc1)NS(=O)(=O)c1cnccc1N[C@@H](Cc1ccccc1)CN1CCC(O)CC1)N1CCC(CCF)CC1 reads 61

----------
Multiple publications report pKi for UniProt:P00734; what follows is a combined list.
pKi: −log10 of the molar value.

Look over these answered cases.
# COMPOUND, SYSTEM_UNDER_TEST, MEASUREMENT
rows = [
    ("O=C(Nc1ccc(Cl)cc1)c1cc(O)ccc1NC(=O)c1sc2ccccc2c1Cl", "UniProt:P00734", "< 5.30"),
    ("COc1cccc(C(=O)Nc2ccc(Cl)cc2)c1NC(=O)c1sc2ccccc2c1Cl", "UniProt:P00734", "< 5.30"),
    ("COc1ccc(-n2nc(C)cc2C(=O)Nc2ccc(-c3ccccc3S(N)(=O)=O)cn2)cc1", "UniProt:P00734", "< 4.68"),
    ("CCOc1cc(C(Nc2ccc3cnccc3c2)C(=O)NS(=O)(=O)c2cccc(S(C)(=O)=O)c2)ccc1OC(C)C (stereo not given)", "UniProt:P00734", "< 4.89"),
]

Shift focus to the following entry.
The reported UniProt:P00734 pKi of COc1ccc(-n2nc(C(F)(F)F)cc2C(=O)Cc2ccc(N3CCCCC3=O)cc2)cc1 is < 4.82
